PROCEDURE_TEXT: Drug repurposing screens with cells derived from glioblastoma tumor samples (AID 1345199); further: nearly all actives have a fitted effect of over 40% in size
TEST_PARAMETERS: GBM patient neurospheres viability, ATP luminescence, 48 h; at 21.3 µM (top of the series); tumour line A
Inconclusive results are not listed.
Cut-off -20% on activity, negative = cell killing: below means true, at or above means false.

COMPOUND	CLASS_ASSIGNMENT
Cc1c(NC(=O)c2cccnc2)c(=O)n(-c2ccccc2)n1C	false
C/C=C/C(=O)N(CC)c1ccccc1C	false
CC(=O)N(CC(O)CN(C(C)=O)c1c(I)c(C(=O)NCC(O)CO)c(I)c(C(=O)NCC(O)CO)c1I)c1c(I)c(C(=O)NCC(O)CO)c(I)c(C(=O)NCC(O)CO)c1I (stereo unspecified)	false
CO[C@@]1(NC(=O)C(C(=O)O)c2ccc(O)cc2)C(=O)N2C(C(=O)O)=C(CSc3nnnn3C)CO[C@@H]21 (stereo partly specified)	true
O=C(O)COC(=O)Cc1ccccc1Nc1c(Cl)cccc1Cl	false
CC1(C)[C@@H](OC(=O)CCC(=O)O)CC[C@]2(C)[C@H]3C(=O)C=C4[C@@H]5C[C@@](C)(C(=O)O)CC[C@]5(C)CC[C@@]4(C)[C@]3(C)CC[C@@H]12	true
COc1ccccc1OCC(O)CO (stereo unspecified)	false
NC(=O)NC1NC(=O)NC1=O (stereo unspecified)	false
CCc1cccc(CC)c1NC(=O)CN(CC(=O)O)CC(=O)O	true

====

MEASUREMENT_TARGET: Glutathione peroxidase 1 (Homo sapiens)
PROCEDURE_TEXT: Primary qHTS Assay for Inhibitors of Recombinant Selenoprotein Glutathione Peroxidase 1 (GPX1) (AID 1845191); further: nearly all actives have a fitted effect of over 65% in size
TEST_PARAMETERS: recombinant GPX1, GR-coupled NADPH fluorescence, 15 min; series mostly up to 48.8 µM
Records with an inconclusive call do not appear. Activity calls are given as the source filed them. The call rests on the fitted dose curve; in most records, active means well fitted inhibition curve with a large enough effect; inconclusive means small, poorly fitted or top-dose-only effect; inactive means flat fitted curve, though single readings scatter.
ASSAY_ENDPOINT: outcome

MOLECULE	ASSAY_ENDPOINT	VALUE_MEASURED
CC(C(=O)O)c1ccc2c(c1)Cc1cccnc1O2 (stereo not drawn)	outcome	inactive
O=C(O)c1ccc(OCCCOc2ccc(C(=O)O)cc2)cc1	outcome	inactive
NC(=O)c1ccc([N+](=O)[O-])cc1Cl	outcome	inactive
O=C1C(c2[nH]c3ccccc3c2O)=Nc2ccccc21	outcome	inactive
COc1ccccc1OC(=O)Oc1ccccc1OC	outcome	inactive
CC(=O)OC[C@H]1O[C@@](COC(C)=O)(O[C@H]2O[C@H](COC(C)=O)[C@@H](OC(C)=O)[C@H](OC(C)=O)[C@H]2OC(C)=O)[C@@H](OC(C)=O)[C@@H]1OC(C)=O	outcome	inactive
O=C(O)/C=C/c1ccc(Cn2ccnc2)cc1	outcome	inactive
O=C(CCBr)N1CCN(C(=O)CCBr)CC1	outcome	inactive
Cc1cc(C)nc(NS(=O)(=O)c2ccc(N)cc2)n1	outcome	inactive
Cc1c(NC(=O)c2cccnc2)c(=O)n(-c2ccccc2)n1C	outcome	inactive
C=CCNC(N)=S	outcome	inactive
O=c1[nH]c(=O)n([C@H]2C[C@H](O)[C@@H](CO)O2)cc1I	outcome	inactive
CCCCCOC(=O)Nc1nc(=O)n([C@@H]2O[C@H](C)[C@@H](O)[C@H]2O)cc1F	outcome	inactive
CC1CC(OC(=O)c2ccccc2O)CC(C)(C)C1 (stereo not drawn)	outcome	inactive
NCc1ccc(S(N)(=O)=O)cc1	outcome	inactive
CN/C(=C\[N+](=O)[O-])NCCSCc1csc(CN(C)C)n1	outcome	inactive
CC(=O)Nc1ccc(C(=O)O)cc1	outcome	inactive
O=C(O)CCCc1ccccc1	outcome	inactive
OCc1ccc(Cl)cc1Cl	outcome	inactive
NS(=O)(=O)c1cc2c(cc1C(F)(F)F)NCNS2(=O)=O	outcome	inactive
CCN1CC(CCN2CCOCC2)C(c2ccccc2)(c2ccccc2)C1=O (stereo not drawn)	outcome	inactive
CCCNC(C)(C)COC(=O)c1ccccc1	outcome	inactive
C/C=C1\[C@H]2C=C(C)C[C@]1(N)c1ccc(=O)[nH]c1C2	outcome	inactive
NS(=O)(=O)c1cc(-c2nn[nH]n2)c(NCc2cccs2)cc1Cl	outcome	inactive
C[C@@H](N)C(=O)O	outcome	inactive
CC[C@H](C)[C@H](N)C(=O)O	outcome	inactive
CC(=O)NS(=O)(=O)c1ccc(N)cc1	outcome	inactive
COCC(=O)Nc1c(I)c(C(=O)NCC(O)CO)c(I)c(C(=O)N(C)CC(O)CO)c1I (stereo not drawn)	outcome	inactive
C[n+]1ccccc1/C=N/O	outcome	inactive
COc1ccc(O)cc1	outcome	inactive
NCC1CCC(C(=O)Oc2ccc(CCC(=O)O)cc2)CC1 (stereo not drawn)	outcome	inactive
O=C(O)CCC(=O)O	outcome	inactive
C[N+]1(C)CCCC(OC(=O)C(O)(c2ccccc2)c2ccccc2)C1 (stereo not drawn)	outcome	inactive
CC[N+](C)(CC)CCOC(=O)C1c2ccccc2Oc2ccccc21	outcome	inactive
CCN(CC)C(=O)c1cccc(C)c1	outcome	inactive
CC(=O)NCc1c(I)c(NC(C)=O)c(I)c(C(=O)O)c1I	outcome	inactive
C[C@]1(Cn2ccnn2)[C@H](C(=O)O)N2C(=O)C[C@H]2S1(=O)=O	outcome	inactive
CO[C@@]1(NC(=O)C(C(=O)O)c2ccc(O)cc2)C(=O)N2C(C(=O)O)=C(CSc3nnnn3C)CO[C@@H]21 (stereo partly drawn)	outcome	inactive
CN[C@@H]1[C@@H](O)[C@@H](O[C@@H]2[C@H](O)[C@H](O[C@H]3OC(CN)=CC[C@H]3N)[C@@H](N)C[C@H]2N)OCC1(C)O (stereo partly drawn)	outcome	inactive
O=C(NCC(O)CO)c1c(I)c(C(=O)NCC(O)CO)c(I)c(N(CCO)C(=O)CO)c1I (stereo not drawn)	outcome	inactive
COc1ccccc1OCC(O)CO (stereo not drawn)	outcome	inactive
Cc1cccc(C)c1NC(=O)CC12CCCN1CCC2	outcome	inactive
CC(CN(C)C)C(C)(O)Cc1ccc(Cl)cc1 (stereo not drawn)	outcome	inactive
CCCNC(C)C(=O)Nc1c(C)csc1C(=O)OC (stereo not drawn)	outcome	inactive
Cc1cc(OI)c(C(C)C)cc1-c1cc(C(C)C)c(OI)cc1C	outcome	inactive
CCCCOC(=O)c1ccc(N)cc1	outcome	inactive
CC1(C)[C@@H](OC(=O)CCC(=O)O)CC[C@]2(C)[C@H]3C(=O)C=C4[C@@H]5C[C@@](C)(C(=O)O)CC[C@]5(C)CC[C@@]4(C)[C@]3(C)CC[C@@H]12	outcome	inactive
